IC80 (µg/ml) with constrains listing for selected binders.
Biological target: HIV Env of isolate 191955_A11 (clade A) (HIV)
Assay: cell-based or functional assay
Kindly provide the numeric value in µg/mL only, without the unit symbol.

Take a look at these entries with their results.
INSERT INTO measurements (binder, number) VALUES
  ('PGDM1400 (antibody, V domains shown) VH: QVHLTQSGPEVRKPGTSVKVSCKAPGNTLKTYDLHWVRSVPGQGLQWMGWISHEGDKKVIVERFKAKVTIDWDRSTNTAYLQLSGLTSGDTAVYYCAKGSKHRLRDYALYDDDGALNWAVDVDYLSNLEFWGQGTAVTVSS VL: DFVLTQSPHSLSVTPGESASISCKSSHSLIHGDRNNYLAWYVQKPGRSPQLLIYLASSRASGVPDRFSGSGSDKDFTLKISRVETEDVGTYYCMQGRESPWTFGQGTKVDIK', 0.05),
  ('ePGDM13 (antibody, V domains shown) VH: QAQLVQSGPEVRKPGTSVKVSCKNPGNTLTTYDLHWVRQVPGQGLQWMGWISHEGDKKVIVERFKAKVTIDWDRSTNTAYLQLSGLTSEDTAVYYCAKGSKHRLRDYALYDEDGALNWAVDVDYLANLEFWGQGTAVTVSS VL: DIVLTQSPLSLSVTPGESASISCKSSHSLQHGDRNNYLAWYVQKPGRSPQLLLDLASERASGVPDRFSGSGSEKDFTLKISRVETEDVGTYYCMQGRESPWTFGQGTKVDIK', 0.033);

Exam item: // Input: ePGDM9 (antibody, V domains shown) VH: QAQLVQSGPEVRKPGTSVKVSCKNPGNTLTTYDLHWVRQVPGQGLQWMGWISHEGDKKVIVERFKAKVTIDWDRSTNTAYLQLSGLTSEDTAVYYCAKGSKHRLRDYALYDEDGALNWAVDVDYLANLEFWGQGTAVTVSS VL: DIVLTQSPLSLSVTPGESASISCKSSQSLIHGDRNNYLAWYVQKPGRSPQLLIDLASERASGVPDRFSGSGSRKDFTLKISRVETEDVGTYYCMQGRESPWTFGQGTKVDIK . Output its IC80 (µg/ml) with constrains only.
Marked response: 0.029

Exam item: Give me measured IC80 (µg/ml) with constrains, please, for this binder: ePGDM5 (antibody, V domains shown) VH: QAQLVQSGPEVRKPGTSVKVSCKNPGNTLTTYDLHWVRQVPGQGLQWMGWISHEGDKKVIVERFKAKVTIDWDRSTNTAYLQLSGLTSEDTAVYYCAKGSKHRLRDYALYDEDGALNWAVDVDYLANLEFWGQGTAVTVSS VL: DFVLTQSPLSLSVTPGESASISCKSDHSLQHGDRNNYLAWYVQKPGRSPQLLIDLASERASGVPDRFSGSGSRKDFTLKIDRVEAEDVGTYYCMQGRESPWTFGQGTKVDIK
Marked response: 0.083
